- TEST_METHOD_NOTES: Water-solubility test
- Type: physicochemical
- CONDITION_DESCRIPTION: 25 °C, water, thermodynamic from solid, deionized water to saturation, 25° C., HPLC condition A; read-out: Solubility

MOLECULE	Solubility
COc1ccc2nc([S@@+]([O-])Cc3ncc(C)c(OC)c3C)[nH]c2c1 [S-omeprazole strontium tetrahydrate, S-omerprazole strontium tetrahydrate]	~17.6 mg/mL
